molecular target: T1, Soluble IGF-1R (R&D Systems, Cat. # 391-GR/CF); recombinant human IGF-1R (human, UniProt P08069 31-935); assay: phage ELISA, vs IR
T1 construct: extracellular domain; Eu3+-labelled in the TR-FRET assays; also called sIGF-1R; rhIGF-1R
No end group written: not given here.

binder	unit descriptor	IGF-1R/IR Comparison
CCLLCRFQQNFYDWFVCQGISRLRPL (disulfide (positions not given here); also: disulfide among the four cysteines, pairing not given here) [X2CA-2-B4-IGFR]	ratio	3.6
SQAGSAFYAWFDQVLRTVHSA [20E2Bβ-4-G6-IR]	ratio	3.3
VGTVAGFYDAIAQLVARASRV [20E2A-3-C7-IGFR]	ratio	5.1
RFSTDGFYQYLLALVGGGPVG [20E28-1-A11-ICFR]	ratio	9.7
